- Test system: human muscarinic M1 receptor (Homo sapiens)
- Test protocol: Alphascreen Surefire phospho-ERK1/2 functional assay, M1
- Type: cell-based
- Measurement parameters: CHO cells stably expressing human M1; phospho-ERK1/2; * = variable results; read-out: pEC50 M1 (converted)
Endpoint label: EC50 (µM)
Give bare numbers, in µM.

Would you please look over these solved cases?
CCOC(=O)N1CCC2(CC(N3CCC(N4C(=O)OC[C@@H]4CC)CC3)C2)C1 (single isomer, unassigned) [2-122 Isomer 2] | 1
CCOC(=O)N1CCC2(CC(N3CCC([C@@H]4CCCN4C(=O)OC4CCC4)CC3)C2)C1 (single isomer, unassigned) [2-43 Isomer 2] | 3.16

Continue with the next molecule.
Item under review: CCOC(=O)N1CCC2(CC(N3CCC(N4CCN(C)C4=O)CC3)C2)C1 (single isomer, unassigned) [2-125 Isomer 2] . Reported EC50?
3.98

---

- Test system: human muscarinic M1 receptor (Homo sapiens, UniProt P11229)
- Sequence (P11229 1-460): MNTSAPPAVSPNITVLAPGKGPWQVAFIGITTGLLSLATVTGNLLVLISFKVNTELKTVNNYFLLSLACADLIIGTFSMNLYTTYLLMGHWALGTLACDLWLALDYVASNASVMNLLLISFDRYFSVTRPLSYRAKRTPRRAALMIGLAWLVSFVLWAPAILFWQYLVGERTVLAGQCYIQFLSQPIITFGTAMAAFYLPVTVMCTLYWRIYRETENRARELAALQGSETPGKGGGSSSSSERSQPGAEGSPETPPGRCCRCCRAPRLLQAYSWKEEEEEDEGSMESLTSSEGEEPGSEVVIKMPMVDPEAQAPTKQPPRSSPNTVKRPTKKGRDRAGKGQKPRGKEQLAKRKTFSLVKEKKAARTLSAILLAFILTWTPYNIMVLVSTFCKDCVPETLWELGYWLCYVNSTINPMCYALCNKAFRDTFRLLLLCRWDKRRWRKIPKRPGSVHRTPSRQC
- Test protocol: Alphascreen Surefire phospho-ERK1/2 functional assay, M1
- Format: cell-based
- Measurement parameters: CHO, read-out: % Emax cf. ACh, M1, CHO cells stably expressing human M1; relative to ACh
Assignment: determine reported Emax for the given compounds.
Answers are plain numbers, in %.

Would you please look over these solved cases?
CCOC(=O)N1CCC2(CC(N3CCC(C4CCCN4C=O)CC3)C2)C1 (single isomer, unassigned) [2-2 Isomer 2] | 39
CCOC(=O)N1CCC2(CC(N3CCC([C@@H]4CCCN4C(=O)N4CC(F)(F)C4)CC3)C2)C1 (single isomer, unassigned) [2-39 Isomer 2] | 41
COC(=O)N1CCC2(CC(N3CCC(n4ccc(C)n4)CC3)C2)C1 (single isomer, unassigned) [1-45 Isomer 2] | 80

State the recorded Emax for every item in the following list.
1. CCOC(=O)N1CCC2(CC(N3CCC(C4CCCN4C(=O)OC)CC3)C2)C1 (single isomer, unassigned) [2-11 Isomer 2]
2. O=C(OCCF)N1CCC2(CC(N3CCC(c4ccc[nH]c4=O)CC3)C2)C1 (single isomer, unassigned) [3-3 Isomer 2]

[39, 81]

State the recorded Emax for every item in the following list.
1. CCOC(=O)N1CCC2(CC(N3CCC(n4nnnc4C)CC3)C2)C1 (single isomer, unassigned) [1-63 Isomer 2]
2. COC(=O)N1CCC2(CC(N3CCC(c4nn(C)cc4C)CC3)C2)C1 (single isomer, unassigned) [1-55 Isomer 2]
3. CCOC(=O)N1CCC2(CC(N3CCC(n4ccnn4)CC3)C2)C1 (single isomer, unassigned) [1-35 Isomer 2]

[82, 40, 80]
